- Subject of test: KiSS-1 receptor (Homo sapiens) (UniProt Q969F8)
- Sequence (Q969F8 whole entry, looked up): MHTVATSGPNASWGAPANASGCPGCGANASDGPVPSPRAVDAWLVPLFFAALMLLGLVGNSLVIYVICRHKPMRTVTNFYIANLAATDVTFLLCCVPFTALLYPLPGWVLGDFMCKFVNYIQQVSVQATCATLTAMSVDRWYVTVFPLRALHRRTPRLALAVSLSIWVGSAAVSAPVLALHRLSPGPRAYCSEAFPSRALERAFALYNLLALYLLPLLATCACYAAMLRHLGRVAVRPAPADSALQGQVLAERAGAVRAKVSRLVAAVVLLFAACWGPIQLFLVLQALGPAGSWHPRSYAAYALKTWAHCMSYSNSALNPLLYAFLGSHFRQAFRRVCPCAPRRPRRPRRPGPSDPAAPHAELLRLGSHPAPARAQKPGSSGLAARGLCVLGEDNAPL
- Test name: Human kisspeptin (KISS1R) small molecule agonists, calcium flux assay in KISS1R-HEK293 cells (AID 1920064); also: % is scaled to controls: 0 for no effect and ±100 for the full control effect
- Condition label: KISS1R-HEK293, calcium flux fluorescence, agonist; series mostly up to 76.8 µM
Active and inactive are the calls of the source. Calls follow the shape of the dose curve; as a rule, active = well fitted activation curve with a large enough effect in the repeat runs; inconclusive = weak or mixed curves; inactive = flat fitted curve, though single readings scatter.
Readout: activation

Please review the following examples before continuing.
1) Cc1ccc(C#N)cc1; inactive
2) Brc1c2ccccc2c(Br)c2ccccc12; 0.391% [at 6.97 µM] (inactive)
3) CC1(C)O[C@@H]2C[C@H]3[C@@H]4CCC5=CC(=O)CC[C@]5(C)[C@@]4(F)[C@@H](O)C[C@]3(C)[C@]2(C(=O)CCl)O1; inactive
4) CCCCCCCCCCCCCOC(=O)CCSCCC(=O)OCCCCCCCCCCCCC; 1.75% [at 15.8 µM] (inactive)
5) CC1=CC=C(C(C)C)CC1; inactive

Request: Please list activation recorded for the compound CCCC(=O)OC/C=C(\C)CCC=C(C)C
Result: inactive

Request: // Input: CCCC(=O)OC(C)(C)Cc1ccccc1 . Output its activation only.
Result: inactive

Request: Give the measured activation for CN(C)CCOc1ccc(/C(=C(/CCCl)c2ccccc2)c2ccccc2)cc1
Result: inactive

---

- Test name: p53 small molecule agonists, cell-based qHTS assay with rat liver microsomes: qHTS cell viability counter screen (AID 1963580); also: % is scaled to controls: 0 for no effect and ±100 for the full control effect; nearly all actives have a fitted effect of over 45% in size
- Condition label: p53RE-bla HCT-116 + rat microsomes, ATP viability, 16 h; series mostly up to 66 µM
Results filed as inconclusive are left out. Calls of active or inactive are those of the source. The call rests on the fitted dose curve.
Respond only with the outcome that fits, drawn from yes = active, no = inactive

1. CC(C)CCOCc1ccccc1; no

Request: Write down the call the test reported for this compound. Item: CC(C)=CCCC(C)CCOC=O (configuration not stated)
Result: no

Request: Kindly provide the recorded test outcome for the following compound: CCCCCOC(=O)COc1cc(N2C(=O)C3=C(CCCC3)C2=O)c(F)cc1Cl
Result: no

Request: Answer briefly: the call reported for CC1=CC(C)C(C=O)C(C)C1 (configuration not stated) in this assay.
Result: no

---

- Test name: Nuclear factor erythroid 2-related factor 2/antioxidant responsive element (Nrf2/ARE) small molecule agonists: qHTS cell viability counter screen in human keratinocytes (AID 1919968); also: nearly all actives have a fitted effect of over 55% in size
- Condition label: KeratinoSens HaCaT ARE cells viability, CellTiter-Fluor, 24 h; series mostly up to 92.4 µM
Records with an inconclusive call do not appear. Activity calls are given as the source filed them. Calls follow the shape of the dose curve; as a rule, active = well fitted cell-killing curve with a large enough effect in the repeat runs; inconclusive = weak or mixed curves, or effect the other way; inactive = flat fitted curve, though single readings scatter.
The reply should name one outcome from active, inactive

Worked examples, 3 compounds total:
1) O=C(O)COc1ccc2ccccc2c1; inactive
2) O=C1C=CC(=O)N1c1cccc(N2C(=O)C=CC2=O)c1; active
3) CC(C)=CC(C)(C)C; inactive

Request: Called result for CC(C)(C)CCCCCCOC(=O)c1ccccc1C(=O)OCCCCCCC(C)(C)C
Result: inactive

Request: Identify the outcome logged in this assay for the compound shown: Cc1cc(C2CCCCC2)n(O)c(=O)c1
Result: active

---

- Subject of test: Muscarinic acetylcholine receptor M1 (Homo sapiens) (UniProt P11229)
- Sequence (P11229 whole entry, looked up): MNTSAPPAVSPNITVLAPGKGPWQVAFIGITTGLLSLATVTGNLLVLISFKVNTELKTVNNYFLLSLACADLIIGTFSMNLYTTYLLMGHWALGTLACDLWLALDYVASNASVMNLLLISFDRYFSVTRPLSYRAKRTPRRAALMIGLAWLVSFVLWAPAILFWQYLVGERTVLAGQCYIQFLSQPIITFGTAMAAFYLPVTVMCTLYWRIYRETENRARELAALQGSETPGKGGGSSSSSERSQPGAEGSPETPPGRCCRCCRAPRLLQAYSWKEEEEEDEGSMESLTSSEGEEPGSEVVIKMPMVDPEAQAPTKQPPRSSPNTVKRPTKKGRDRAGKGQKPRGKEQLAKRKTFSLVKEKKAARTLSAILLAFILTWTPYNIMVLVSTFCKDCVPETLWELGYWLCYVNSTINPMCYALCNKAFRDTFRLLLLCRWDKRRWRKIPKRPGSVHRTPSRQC
- Test name: Cholinergic receptor muscarinic 1 (CHRM1) small molecule agonists, cell-based qHTS assay (AID 1963589); also: % is scaled to controls: 0 for no effect and ±100 for the full control effect; nearly all actives have a fitted effect of over 35% in size
- Condition label: CHRM1-CHO cells, agonist mode, calcium flux fluorescence; series mostly up to 76.8 µM
Activity calls are given as the source filed them. The call rests on the fitted dose curve.
Readout: activation

The following compounds have reported results that may help.
1) CCC(C)(C)C1CCC(O)CC1 (stereo unspecified); inactive
2) O=C(O)CN(CCOCCOCCN(CC(=O)O)CC(=O)O)CC(=O)O; -0.0666% [at 0.29 µM] (inactive)
3) O=S1(=O)N=C(O)c2ccccc21; inactive
4) CC(=O)c1c(C)c([N+](=O)[O-])c(C(C)(C)C)c([N+](=O)[O-])c1C; inactive
5) c1ccc(Sc2ccccc2)cc1; inactive

Pending compound:
Request: Supply recorded activation for COC(=O)C1=C(C)NC(C)=C(C(=O)OC(C)C)C1c1cccc2nonc12 (stereo unspecified) here.
Result: inactive

---

- Test name: Nuclear factor erythroid 2-related factor 2/antioxidant responsive element (Nrf2/ARE) small molecule agonists: qHTS cell viability counter screen in human keratinocytes (AID 1919968); also: nearly all actives have a fitted effect of over 55% in size; also: potency is read from the fitted curve at half-maximal effect
- Condition label: KeratinoSens HaCaT ARE cells viability, CellTiter-Fluor, 24 h; series mostly up to 92.4 µM
Inconclusive results are not listed. The source made the active and inactive calls. The call rests on the fitted dose curve; in most records, active means well fitted cell-killing curve with a large enough effect in the repeat runs; inconclusive means weak or mixed curves, or effect the other way; inactive means flat fitted curve, though single readings scatter.
Readout: Potency

Take a look at these entries with their results.
1. NC(=O)c1ccccc1; inactive
2. CN(C)c1ccncc1; inactive
3. CC(CC=O)CCCC(C)(C)O (stereo unspecified); inactive
4. O=C1CCCC(=O)O1; inactive
5. COc1cccc2sc(N)nc12; inactive

In the following, a different compound is considered.
Request: Indicate its recorded Potency; the compound in question is O=c1[nH]c2ccc(S(=O)CCN3CCC(Cc4ccc(F)cc4)CC3)cc2o1 (stereo unspecified)
Result: inactive

---

- Test name: p53 small molecule agonists, cell-based qHTS assay (AID 1963582); also: % is scaled to controls: 0 for no effect and ±100 for the full control effect
- Condition label: HCT-116 p53RE-bla reporter, beta-lactamase FRET ratio, 16 h; series mostly up to 66 µM
Results filed as inconclusive are left out. The source made the active and inactive calls. The call rests on the fitted dose curve; in most records, active means well fitted activation curve with a large enough effect in the signal ratio in the repeat runs (not every such curve was filed as active); inconclusive means weak or mixed curves; inactive means flat fitted curve, though single readings scatter; the % refers to the signal ratio.
Readout: activation

Solved entries:
1) O=S(=O)(O)c1cc(S(=O)(=O)O)c2ccc3c(S(=O)(=O)O)cc(S(=O)(=O)O)c4ccc1c2c43; 4.26% [at 13.5 µM] (inactive)
2) CCCCCCCCCCCCN1CCCC1=O; inactive
3) C[C@]12C(=O)OC(=O)[C@H]1[C@H]1C=C[C@@H]2C1; inactive
4) OCCOCC#CCOCCO; inactive
5) C1CCC2=NCCCN2CC1; inactive
6) Nc1ccc([N+](=O)[O-])cc1O; inactive

Request: Give the measured activation for Cc1cc(C)c(C)c(C)c1
Result: inactive

Request: Provide one value: measured activation of CCCCCOC(=O)CCCCC
Result: inactive

Request: Give the reported value of activation for this record: CC(S)C(C)S (configuration not stated)
Result: inactive

Request: Please give the documented activation of COC(=O)C1=C(C)NC(C)=C(C(=O)OCC(C)=O)C1c1ccccc1[N+](=O)[O-] (configuration not stated)
Result: inactive

Request: Given the molecule O=c1[nH]sc2ccccc12 , write its reported activation.
Result: inactive

---

- Test name: p53 small molecule agonists, cell-based qHTS assay with rat liver microsomes: qHTS cell viability counter screen (AID 1963580); also: % is scaled to controls: 0 for no effect and ±100 for the full control effect; nearly all actives have a fitted effect of over 45% in size
- Condition label: p53RE-bla HCT-116 + rat microsomes, ATP viability, 16 h; series mostly up to 66 µM
- From the text: National Center for Advancing Translational Sciences [NCATS] Division of Preclinical Innovation [DPI] U.S. Environmental Protection Agency [EPA] National Institutes of Environmental Health Sciences [NIEHS] National Toxicology Program [NTP] U.S. Food and Drug Administration [FDA] p53, a tumor suppressor protein, is activated following cellular insult, including DNA damage and other cellular stresses. […] The activation of the reporter gene under culture conditions can be detected by fluorescence intensity. […]
Records with an inconclusive call do not appear. Active and inactive are the calls of the source. Calls come from the whole dose curve.
# activity change, negative = cytotoxicity listing for each entry below

Request: Dear colleague, please send me the reported activity change, negative = cytotoxicity for NC[C@H]1O[C@H](O[C@H]2[C@H](O)[C@@H](O[C@H]3O[C@H](CO)[C@@H](O)[C@H](N)[C@H]3O)[C@H](N)C[C@@H]2N)[C@H](O)[C@@H](O)[C@@H]1O when you can.
Result: 3.51% [at 5.99 µM] (inactive)

Request: Note down activity change, negative = cytotoxicity recorded for N[C@@H](C(=O)N[C@@H]1C(=O)N2C(C(=O)O)=C(Cl)CS[C@H]12)c1ccccc1
Result: 0.042% [at 5.99 µM] (inactive)

Request: Query activity change, negative = cytotoxicity for CN1CCN(c2cc3c(nn2)Oc2ccccc2N3C)CC1
Result: 0.69% [at 13.5 µM] (inactive)

Request: Output activity change, negative = cytotoxicity of CCCCCCCCCCCCCCCCN(C)C
Result: 1.34% [at 5.99 µM] (inactive)

Request: Give the reported value of activity change, negative = cytotoxicity for this record: C1CCCCCCCCCCC1
Result: 0.482% [at 13.5 µM] (inactive)

Request: State its activity change, negative = cytotoxicity for this compound: Cc1[nH]c(C)c(Cl)c(=O)c1Cl
Result: 4.54% [at 13.5 µM] (inactive)

Request: Quickly give me recorded activity change, negative = cytotoxicity for NC(N)=NCCN1CCCCCCC1
Result: 0.194% [at 0.249 µM] (inactive)

Request: Give me measured activity change, negative = cytotoxicity, please, for this compound: CCCCCCCCCCCCCOC(=O)CCSCCC(=O)OCCCCCCCCCCCCC
Result: -0.0386% [at 13.5 µM] (inactive)

Request: Answer with reported activity change, negative = cytotoxicity of CCN1/C(=C/C=C/c2sc3ccccc3[n+]2CC)Sc2ccccc21
Result: 1.97% [at 13.5 µM] (inactive)

Request: Indicate its recorded activity change, negative = cytotoxicity; the compound in question is N[C@@H](CCC(=O)N[C@@H](CS)C(=O)NCC(=O)O)C(=O)O
Result: 0.778% [at 13.5 µM] (inactive)

Request: For the compound c1ccc(-c2ccc(-c3ccccc3)cc2)cc1 , give its measured activity change, negative = cytotoxicity value.
Result: -3.67% [at 13.5 µM] (inactive)
